Entry source: patent US7138361B2

Attribute: Barnyardgrass plant response rating
Tested on: barnyardgrass (Echinochloa crus-galli)
test_protocol: Test C flooded paddy test
Format: in vivo
measurement_conditions: Flooded Paddy; Rate 250 g/ha; scale 0 to 100, 0 no effect, 100 complete control
Could you respond with only the numeric value?

Observe how each entry below is paired with its result.
CCCCC(C)c1ccn(C2SCN(c3cccc(C(F)(F)F)c3)C2=O)n1 (centres unmarked)
20
CC1(C)CCc2cn(C3CCN(c4cccc(C(F)(F)F)c4)C3=O)nc21 (centres unmarked)
40

**Q:** Please report Barnyardgrass plant response rating with barnyardgrass (Echinochloa crus-galli) for item Cc1ccc(N2CCC(n3ccc(C(C)(C)C)n3)C2=O)cc1OC(F)F (centres unmarked) .
**A:** 90

**Q:** Please report Barnyardgrass plant response rating with barnyardgrass (Echinochloa crus-galli) for item Cc1ccc(N2CCC(n3ccc(C(C)(C)C)n3)C2=O)cc1OC(C)C (centres unmarked) .
**A:** 70

**Q:** Please report Barnyardgrass plant response rating with barnyardgrass (Echinochloa crus-galli) for item CC(C)(C)c1ccn(C2CCN(c3ccc(Cl)c(Cl)c3)C2=O)n1 (centres unmarked) .
**A:** 80

* * *

Test system: giant foxtail (Setaria faberii)
test_protocol: Test C preemergence
Format: in vivo
measurement_conditions: Rate 125 g/ha; scale 0 to 100, 0 no effect, 100 complete control
From the text: […]
Attribute: Plant response rating, Foxtail, Giant
Could you respond with only the numeric value?

CC(C)c1cccc(N2CCC(n3ccc(C(C)(C)C)n3)C2=O)c1 (centres unmarked) [Compound 111]
0

**Q:** Return reported Plant response rating, Foxtail, Giant. Input molecule: CCOc1cccc(N2CCC(n3ccc(C(C)(C)C)n3)C2=O)c1 (centres unmarked) [Compound 130]
**A:** 100

**Q:** Return reported Plant response rating, Foxtail, Giant. Input molecule: COc1cccc(N2CCC(n3ccc(C(C)(C)C)n3)C2=O)c1 (centres unmarked) [Compound 87]
**A:** 100

**Q:** Return reported Plant response rating, Foxtail, Giant. Input molecule: CCCC(C)c1ccn(C2CCN(c3cccc(OC)c3)C2=O)n1 (centres unmarked) [Compound 99]
**A:** 20

**Q:** Return reported Plant response rating, Foxtail, Giant. Input molecule: COc1cc(N2CCC(n3ccc(C(C)C)n3)C2=O)ccc1Cl (centres unmarked) [Compound 120]
**A:** 50

* * *

System: pigweed (Amaranthus retroflexus)
test_protocol: Test C postemergence
Type: in vivo
measurement_conditions: Rate 250 g/ha, scale 0 to 100 (0 no effect, 100 complete control)
I would appreciate it if you labelled entries satisfied when Plant response rating, Pigweed is 70 or higher, otherwise not satisfied.

Use the examples below as a reference point.
CCCOc1cc(N2CCC(n3ccc(C(C)(C)C)n3)C2=O)ccc1C (stereo not shown)
not satisfied
CCC(C)c1ccn(C2SCN(c3cccc(OC(F)(F)F)c3)C2=O)n1 (stereo not shown)
not satisfied
CCOc1cc(N2CCC(n3ccc(C(C)(C)C)n3)C2=O)ccc1C (stereo not shown)
satisfied

# next molecule below
**Q:** Hello, I need to know if COc1cc(N2CCC(n3ccc(C(C)C)n3)C2=O)ccc1Cl (stereo not shown) has measured Plant response rating, Pigweed not below 70. Thanks!
**A:** not satisfied

* * *

Tested on: barnyardgrass (Echinochloa crus-galli)
test_protocol: Test B preemergence
Assay type: in vivo
measurement_conditions: Preemergence, Rate 500 g/ha; scale 0 to 100, 0 no effect, 100 complete control
measured_property: Plant response rating, Barnyardgrass
Could you respond with only the numeric value?

Observe how each entry below is paired with its result.
Cc1cc(N2CCC(n3ccc(C(C)(C)C)n3)C2=O)cc(Br)c1C (centres unmarked)
100
O=C1C(n2cccn2)SCN1c1cccc(C(F)(F)F)c1 (centres unmarked)
0
Cc1ccc(N2CCC(n3ccc(C(C)(C)C)n3)C2=O)cc1OCCI (centres unmarked)
0
CCC(C)c1ccn(C2SCN(c3cccc(OC(F)(F)F)c3)C2=O)n1 (centres unmarked)
100
CCC(C)c1ccn(C2CCN(c3ccc(Cl)c(OC)c3)C2=O)n1 (centres unmarked)
100
CCOc1cccc(N2CCC(n3ccc(C(C)CC)n3)C2=O)c1 (centres unmarked)
100
CCCC(C)c1ccn(C2CCN(c3cccc(OC)c3)C2=O)n1 (centres unmarked)
100
O=C1C(n2ccc(C3CCCCC3)n2)OCN1c1cccc(C(F)(F)F)c1 (centres unmarked)
80
CCC(CC)c1ccn(C2CCN(c3cccc(OC)c3)C2=O)n1 (centres unmarked)
100
CC(C)c1ccn(C2SCN(c3cccc(C(F)(F)F)c3)C2=O)n1 (centres unmarked)
100

**Q:** Return reported Plant response rating, Barnyardgrass. Input compound: O=C1C(n2ccc(C3CCC3)n2)OCN1c1cccc(C(F)(F)F)c1 (centres unmarked)
**A:** 100

**Q:** Return reported Plant response rating, Barnyardgrass. Input compound: COc1cc(N2CCC(n3ccc(C(C)(C)C)n3)C2=O)ccc1Br (centres unmarked)
**A:** 100

**Q:** Return reported Plant response rating, Barnyardgrass. Input compound: CCC(CC)c1ccn(C2OCN(c3cccc(OC(F)(F)F)c3)C2=O)n1 (centres unmarked)
**A:** 100

**Q:** Return reported Plant response rating, Barnyardgrass. Input compound: CCCCC(C)c1ccn(C2OCN(c3cccc(C(F)(F)F)c3)C2=O)n1 (centres unmarked)
**A:** 90
